targetSystem: T1, CRBN, Q96SW2;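 note: pooled lentiviral library of zinc finger degron-EGFP fusions in mCherry-positive Jurkat cells, FACS-sorted after compound exposure, with degron abundance counted by next-generation sequencing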
T1 chain: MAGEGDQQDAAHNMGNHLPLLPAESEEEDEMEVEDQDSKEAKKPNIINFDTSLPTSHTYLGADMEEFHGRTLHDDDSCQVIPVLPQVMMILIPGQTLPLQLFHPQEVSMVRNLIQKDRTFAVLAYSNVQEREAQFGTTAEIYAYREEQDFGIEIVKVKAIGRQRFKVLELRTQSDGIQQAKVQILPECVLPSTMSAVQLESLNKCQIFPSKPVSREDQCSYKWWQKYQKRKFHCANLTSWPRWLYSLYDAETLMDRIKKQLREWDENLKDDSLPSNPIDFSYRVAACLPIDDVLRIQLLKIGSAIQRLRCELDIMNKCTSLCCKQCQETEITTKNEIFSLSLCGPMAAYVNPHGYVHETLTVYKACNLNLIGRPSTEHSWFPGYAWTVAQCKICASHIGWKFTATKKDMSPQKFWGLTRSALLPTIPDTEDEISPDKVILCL
protocol: log2 fold change of degron read counts, EGFP-low vs EGFP+ sorted cells (limma voom), compound-induced degradation; higher = more compound-induced degradation of the degron-EGFP fusion; degrons are variants of IKZF1/3 zinc finger 2; compound dose not given here
runConditions: Jurkat; 18 h; compound: thalidomide
Over roughly 8,300 sequences, “log2 fold change of degron read counts, EGFP-low vs EGFP+ sorted cells (limma voom), compound-induced degradation” has its median near -1.1; the highest 2% begin near 3.2. The sample as a whole holds a higher share of the highest values than the screen did.
The entries below are paired with their reported log2 fold change of degron read counts.

sequenceText: FFCPICGAPFTQKGNLLRHIKL [46F_47F_49P_50I_52G_53A_54P_55F_67L_, Q9UKT9]
log2 fold change of degron read counts: 2.09
//
sequenceText: FFCSVCGHKFTQKGNLLRHIKL [46F_47F_49S_50V_52G_53H_54K_55F_67L_, Q9UKT9]
log2 fold change of degron read counts: -2.6
//
sequenceText: FYCPICGRVFTQKGNLLRHIKL [46F_47Y_49P_50I_52G_53R_54V_55F_67L_, Q9UKT9]
log2 fold change of degron read counts: -1.3
//
sequenceText: FMCEICGHLFTQKGNLLRHIKL [46F_47M_49E_50I_52G_53H_54L_55F_67L_, Q9UKT9]
log2 fold change of degron read counts: -2.63
//
sequenceText: FKCNQCGRGFTQKGNLLRHIKL [46F_47K_49N_50Q_52G_53R_54G_55F_67L_, Q9UKT9]
log2 fold change of degron read counts: -2.64
//
sequenceText: FICNQCGREFTQKGNLLRHIKL [46F_47I_49N_50Q_52G_53R_54E_55F_67L_, Q9UKT9]
log2 fold change of degron read counts: -3.43
//
sequenceText: FTCEVCGADFTQKGNLLRHIKL [46F_47T_49E_50V_52G_53A_54D_55F_67L_, Q9UKT9]
log2 fold change of degron read counts: 0.571
